- target-or-system: DRB1*15:01 (DR2b) (Homo sapiens, UniProt P01903+P01911)
- experiment-notes: Fluorescence polarization competition binding assay, DR2b
- experimental-setup: FP competition; Alexa488 MBP probe 25 nM; DR2b-CLIP 500 nM; HLA-DM 500 nM; 37 °C, 24 h
pIC50: −log10 of the molar value.
measurement-type: pIC50

DFINGIFAKVKNTKVIK [Peptide P12, OC43 spike 98–114, naturally processed peptide eluted from HLA-DR]	≤ 6.00
SRQYLLAFNQDGIIFN [Peptide P13, OC43 spike 271–286, naturally processed peptide eluted from HLA-DR]	> 6.00
